Overview of recorded Proxy for plastic degradation for various proteins
substrate: PET; experiment: Proxy for plastic degradation [Crystallinity (DSC)] (% crystallinity loss); conditions: pH 9.4

- protein: "unnamed (protein) MNFPRASRLMQAAVLGGLMAVSAAATAQTNPYARGPNPTAASLEASAGPFTVRSFTVSRPSGYGAGTVYYPTNAGGTVGAIAIVPGYTARQSSIKWWGPRLASHGFVVITIDTNSTLDQPSSRSSQQMAALRQVASLNGTSSSPIYGKVDTARMGVMGWSMGGGGSLISAANNPSLKAAAPQAPWDSSTNFSSVTVPTLIFACENDSVAPVNSSALPIYDSMSRNAKQFLEINGGSHSCANSGNSNQALIGKKGVAWMKRFMDNDTRYSTFACENPNSTRVSDFRTANCSLEHHHHHH"
  Proxy for plastic degradation: 0.6
- protein: "unnamed (protein) MNFPRASRLMQAAVLGGLMAVSAAATAQTNPYARGPNPTAASLEASAGPFTVRSFTVSRPSGYGAGTVYYPTNAGGTVGAIAIVPGYTARQSSIKWWGPRLASHGFVVITIDTNSTLDQPSSRSSQQMAALRQVASLNGTSSSPIYGKVDTARMGVMGWSMGGGGSLISAANNPSLKAAAPQAPWDSSTNFSSVTVPTLIFACENDSVAPVASSALPIYDSMSRNAKQFLEINGGSHYCANSGNSNQALIGKKGVAWMKRFMDNDTRYSTFACENPNSTRVSDFRTANCSLEHHHHHH"
  Proxy for plastic degradation: 3.2
- protein: "unnamed (protein) MNFPRASRLMQAAVLGGLMAVSAAATAQTNPYARGPNPTAASLEASAGPFTVRSFTVSRPSGYGAGTVYYPTNAGGTVGAIAIVPGYTARQSSIKWWGPRLASHGFVVITIDTNSTLDQPSSRSSQQMAALRQVASLNGTSSSPIYGKVDTARMGVMGWSMGGGGSLISAANNPSLKAAAPQAPWDSSTNFSSVTVPTLIFACENDSVAPVASSALPIYDSMSRNAKQFLEINGGSHSCANSGNSNQALIGKKGVAWMKRFMDNDTRYSTFACENPNSTRVSDFRTANCSLEHHHHHH"
  Proxy for plastic degradation: 2
- protein: "unnamed (protein) MNFPRASRLMQAAVLGGLMAVSAAATAQTNPYARGPNPTAASLEASAGPFTVRSFTVSRPSGYGAGTVYYPTNAGGTVGAIAIVPGYTARQSSIKWWGPRLASHGFVVITIDTNSTLDQPSSRSSQQMAALRQVASLNGTSSSPIYGKVDTARMGVMGWSMGGGGSLISAANNPSLKAAAPQAPWDSSTNFSSVTVPTLIFACENDSIAPVNSSALPIYDSMSRNAKQFLEINGGSHSCANSGNSNQALIGKKGVAWMKRFMDNDTRYSTFACENPNSTRVSDFRTANCSLEHHHHHH"
  Proxy for plastic degradation: 1.5
